MEASUREMENT_TARGET: NdhF (Arabidopsis thaliana (endogenous in the …, UniProt P56752 1-746))
Sequence (P56752 whole entry): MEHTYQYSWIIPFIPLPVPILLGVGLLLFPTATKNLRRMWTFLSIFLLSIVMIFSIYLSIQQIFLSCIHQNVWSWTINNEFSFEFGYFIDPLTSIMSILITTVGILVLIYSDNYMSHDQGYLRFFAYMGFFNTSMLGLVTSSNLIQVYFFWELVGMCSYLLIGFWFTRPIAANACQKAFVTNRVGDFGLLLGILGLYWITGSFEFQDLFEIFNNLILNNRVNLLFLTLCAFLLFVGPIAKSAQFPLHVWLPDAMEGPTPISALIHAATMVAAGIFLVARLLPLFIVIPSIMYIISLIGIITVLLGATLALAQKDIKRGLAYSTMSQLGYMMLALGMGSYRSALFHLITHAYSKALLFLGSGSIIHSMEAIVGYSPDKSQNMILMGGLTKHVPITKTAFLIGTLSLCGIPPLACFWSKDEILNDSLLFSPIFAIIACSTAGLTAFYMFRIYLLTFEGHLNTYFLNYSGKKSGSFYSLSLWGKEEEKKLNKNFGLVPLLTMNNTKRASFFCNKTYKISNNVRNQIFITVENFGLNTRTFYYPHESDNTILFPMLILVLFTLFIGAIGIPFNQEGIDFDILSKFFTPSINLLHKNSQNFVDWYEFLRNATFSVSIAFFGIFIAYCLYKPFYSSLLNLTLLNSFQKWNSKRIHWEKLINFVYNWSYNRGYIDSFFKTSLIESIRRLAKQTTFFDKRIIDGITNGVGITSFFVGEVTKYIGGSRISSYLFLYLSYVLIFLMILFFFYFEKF
ASSAY_TEXT: cryo-EM structure
OUTCOME_MEASURE: binding result

INSERT INTO results (binder, readout_value) VALUES
  ('PnsB2 (natural protein, UniProt Q94AQ8 18-348, looked up) SSISAPQTQTINTEKLEDKFGRKGIKFSESNNIPMVELKVRNGSSLKLSLSDAHVLSYKPKVYWKDEGFEEVLYTVDGDESRGGVGVVIVNGEEPKGGSSVISGCDWSVKDTDSDAIDALQIELSCTAGVLDITYIVSLYPVSMATALVVKNNGRKPVTLKPGIMSYLRFKKRSGAGIQGLKGCSYCPNPPLSSPFELLSPSEAMKAESSGWFGSEEGEKPGIWAVEDSVITLLEKKMSRIYGAPPAERLKAVYNTPPSKFETIDQGRGLFFRMIRIGFEEMYVGSPGSMWDKYGKQHYFVCTGPTSMLVPVDVASGETWRGAMVIEHDNL', 'binds');
